- STUDY_SYSTEM: T1, biotinylated recombinant human FAP (human, UniProt Q12884 26-760, biotinylated)
- T1 construct: also called biotinylated human FAP
- ASSAY_COMMENT: SPR (Biacore)
VALUE_KIND: T ½ (h)
Answer format: numeric, h implied, no suffix.

Given the entry P1AE1689_Fab, humanized anti-FAP clone 212 variant VH1G1a/VL1G1a (Fab, V domains shown, Fab) VH: QVQLVQSGAEVKKPGASVKVSCKASGYTLTDYNMDWVRQAPGQGLEWIGDIYPNTGGTIYNQKFKGRVTMTIDTSTSTVYMELSSLRSEDTAVYYCTRFRGIHYAMDYWGQGTTVTVSS VL: EIVLTQSPATLSLSPGERATLSCRASESVDNYGLSFINWFQQKPGQAPRLLIYGTSNRGSGIPARFSGSGSGTDFTLTISSLEPEDFAVYFCQQSNEVPYTFGGGTKVEIK , report its measured T ½.
4.57

src = patent US20250320305A1
